Target: Opioid receptors; delta & kappa (Homo sapiens) (UniProt P41145+P41143)
Sequence (P41143 whole entry, looked up): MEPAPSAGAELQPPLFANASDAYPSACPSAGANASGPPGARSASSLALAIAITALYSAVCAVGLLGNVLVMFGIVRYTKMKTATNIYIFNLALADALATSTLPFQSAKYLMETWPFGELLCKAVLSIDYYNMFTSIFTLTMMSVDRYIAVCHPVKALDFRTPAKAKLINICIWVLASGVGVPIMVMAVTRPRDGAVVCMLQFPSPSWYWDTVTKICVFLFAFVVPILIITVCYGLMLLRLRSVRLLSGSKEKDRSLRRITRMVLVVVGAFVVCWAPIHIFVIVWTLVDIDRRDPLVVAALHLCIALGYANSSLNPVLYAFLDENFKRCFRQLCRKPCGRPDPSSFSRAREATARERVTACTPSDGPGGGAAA
Sequence (P41145 whole entry, looked up): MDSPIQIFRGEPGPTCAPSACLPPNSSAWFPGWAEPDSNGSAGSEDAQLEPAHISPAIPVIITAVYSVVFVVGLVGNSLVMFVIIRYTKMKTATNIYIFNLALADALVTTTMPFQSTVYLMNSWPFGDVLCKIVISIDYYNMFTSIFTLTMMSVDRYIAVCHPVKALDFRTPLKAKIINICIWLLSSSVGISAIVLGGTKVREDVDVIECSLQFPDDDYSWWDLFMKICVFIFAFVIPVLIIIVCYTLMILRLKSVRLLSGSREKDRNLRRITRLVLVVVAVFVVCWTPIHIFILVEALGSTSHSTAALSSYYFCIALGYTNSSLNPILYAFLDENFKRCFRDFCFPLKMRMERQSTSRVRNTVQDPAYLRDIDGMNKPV
Assay: Relative affinity for human opioid receptor delta1 and kappa1
Type: protein assay
endpoint_label: Selectivity

1) COC(=O)C(=O)O[C@H]1C[C@@H](C(=O)OC)[C@]2(C)CC[C@H]3C(=O)O[C@H](c4ccoc4)C[C@]3(C)[C@H]2C1=O = > 30
2) CCC(=O)O[C@H]1C[C@@H](C(=O)OC)[C@]2(C)CC[C@H]3C(=O)O[C@H](c4ccoc4)C[C@]3(C)[C@H]2C1=O = 2730

IN: So what does the record say about Selectivity for COC(=O)[C@@H]1C[C@H](O)[C@H](O)[C@H]2[C@@]1(C)CC[C@H]1C(=O)O[C@H](c3ccoc3)C[C@]21C ?
OUT: > 3

IN: So what does the record say about Selectivity for COC(=O)[C@@H]1C[C@H](OC(=O)c2ccccc2)C(=O)[C@H]2[C@@]1(C)CC[C@H]1C(=O)O[C@H](c3ccoc3)C[C@]21C ?
OUT: 12

IN: So what does the record say about Selectivity for C=CCNC(=O)O[C@H]1C[C@@H](C(=O)OC)[C@]2(C)CC[C@H]3C(=O)O[C@H](c4ccoc4)C[C@]3(C)[C@H]2C1=O ?
OUT: 55

IN: So what does the record say about Selectivity for COC(=O)[C@@H]1C[C@H](OC(C)=O)[C@H](OC(C)=O)[C@H]2[C@@]1(C)CC[C@H]1C(=O)O[C@H](c3ccoc3)C[C@]21C ?
OUT: > 15

IN: So what does the record say about Selectivity for COC(=O)[C@@H]1C[C@H](OC(=O)Nc2ccccc2)C(=O)[C@H]2[C@@]1(C)CC[C@H]1C(=O)O[C@H](c3ccoc3)C[C@]21C ?
OUT: 2
